Below is a list of entries, each paired with its recorded Bliss excess value.
# System: A204 (Rhabdomyosarcoma);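 note: after 72 h of two-drug dosing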
# protocol notes: Bliss excess, mean over the matrix (fraction); higher = more synergy
Form field (numeric): enter value without unit.

Consider the reported Bliss excess for these molecules:
>>> quantitative_result("COc1cccc2c1C(=O)c1c(O)c3c(c(O)c1C2=O)C[C@@](O)(C(=O)CO)C[C@@H]3O[C@H]1C[C@H](N)[C@H](O)[C@H](C)O1 [Doxorubicin] + Cc1cc2ncnn2cc1Nc1ncc2c(n1)n(C1CCOCC1)c(=O)n2C [AZD7648] (first compound max 1 µM, 7x7, partner max 10 µM)")
0.0782
>>> quantitative_result("CN(CCO)CC[C@H](CSc1ccccc1)Nc1ccc(S(=O)(=O)NC(=O)c2ccc(N3CCC([C@@H](O)c4ccccc4-c4ccc(Cl)cc4)CC3)cc2)cc1S(=O)(=O)C(F)(F)F [AZD4320] + Cc1cc2ncnn2cc1Nc1ncc2c(n1)n(C1CCOCC1)c(=O)n2C [AZD7648] (first compound max 1 µM, 7x7, partner max 10 µM)")
-0.0551

Returns the measured Bliss excess for the input molecule. Input: Cc1c2c(nn1C)CSCc1cc(n(C)n1)CSc1cc(c3ccccc3c1)OCCCc1c(C(=O)O)n(C)c3c-2c(Cl)ccc13 [AZD5991] + C=CCn1c(=O)c2cnc(Nc3ccc(N4CCN(C)CC4)cc3)nc2n1-c1cccc(C(C)(C)O)n1 [AZD1775] (first compound max 1 µM, partner max 1 µM) 0.0348
